target-or-system: Cyclin-dependent kinase 5/CDK5 activator 1 (Homo sapiens, UniProt Q00535)
Sequence (Q00535 whole entry): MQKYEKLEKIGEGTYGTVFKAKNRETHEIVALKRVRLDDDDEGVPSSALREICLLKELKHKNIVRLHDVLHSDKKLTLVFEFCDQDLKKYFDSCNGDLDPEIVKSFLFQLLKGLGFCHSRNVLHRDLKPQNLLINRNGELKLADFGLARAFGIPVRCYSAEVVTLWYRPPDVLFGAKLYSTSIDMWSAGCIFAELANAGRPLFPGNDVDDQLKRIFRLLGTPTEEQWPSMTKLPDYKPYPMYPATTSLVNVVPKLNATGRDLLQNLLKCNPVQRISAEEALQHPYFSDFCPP
Sequence (Q15078 whole entry, further chain): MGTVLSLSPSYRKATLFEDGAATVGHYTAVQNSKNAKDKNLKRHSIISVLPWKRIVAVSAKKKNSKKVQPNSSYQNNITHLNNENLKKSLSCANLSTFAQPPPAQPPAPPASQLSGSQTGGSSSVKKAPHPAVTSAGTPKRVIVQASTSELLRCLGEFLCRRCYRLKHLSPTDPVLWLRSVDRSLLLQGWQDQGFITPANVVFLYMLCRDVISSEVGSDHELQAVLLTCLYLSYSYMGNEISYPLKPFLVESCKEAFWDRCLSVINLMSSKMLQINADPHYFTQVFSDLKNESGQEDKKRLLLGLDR
assay-summary: Inhibition of human recombinant CDK5/P25 using myelin basic protein substrate
recorded-endpoint: IC50

smiles-text: COc1cccc(Cn2c3ccc(OC)cc3c3c(C)n[nH]c(=O)c32)c1
recorded-endpoint: IC50
recorded-measurement: > 10 µM
//
smiles-text: Cc1n[nH]c(=O)c2c1c1cc(Br)ccc1n2Cc1ccc([N+](=O)[O-])cc1
recorded-endpoint: IC50
recorded-measurement: > 10 µM
//
smiles-text: Cc1n[nH]c(=O)c2c1c1cc(Br)ccc1n2Cc1ccc(C#N)cc1
recorded-endpoint: IC50
recorded-measurement: > 10 µM
//
smiles-text: Cc1n[nH]c(=O)c2c1c1cc(F)ccc1n2Cc1cccc(C#N)c1
recorded-endpoint: IC50
recorded-measurement: > 10 µM
//
smiles-text: Cc1n[nH]c(=O)c2[nH]c3ccc(F)cc3c12
recorded-endpoint: IC50
recorded-measurement: > 10 µM
//
smiles-text: COc1ccc2c(c1)c1c(C)n[nH]c(=O)c1n2Cc1ccc(C#N)cc1
recorded-endpoint: IC50
recorded-measurement: > 10 µM

---

Reported IC50 values for a set of compounds
Tested on: NCI-H727
assay-summary: Antiproliferative activity against human NCI-H727 cells incubated for 48 hrs by […] dye staining based assay
Type: functional, cell-based
measurement-context: NCI-H727, 48 h
recorded-endpoint: IC50 (µM)

smiles-text: COc1cccc(Cn2c3ccc(Br)cc3c3c(C)n[nH]c(=O)c32)c1
target-or-system: NCI-H727
recorded-measurement: 5
//
smiles-text: Cc1n[nH]c(=O)c2c1c1cc(F)ccc1n2Cc1ccc([N+](=O)[O-])cc1
target-or-system: NCI-H727
recorded-measurement: 5
//
smiles-text: Cc1n[nH]c(=O)c2c1c1cc(F)ccc1n2Cc1ccc(C#N)cc1
target-or-system: NCI-H727
recorded-measurement: 4
//
smiles-text: Cc1n[nH]c(=O)c2c1c1cc(Br)ccc1n2Cc1ccc(C#N)cc1
target-or-system: NCI-H727
recorded-measurement: 3
//
smiles-text: Cc1n[nH]c(=O)c2c1c1cc(F)ccc1n2Cc1cccc(C#N)c1
target-or-system: NCI-H727
recorded-measurement: 6
//
smiles-text: Cc1n[nH]c(=O)c2c1c1cc(Br)ccc1n2Cc1cccc(C#N)c1
target-or-system: NCI-H727
recorded-measurement: 4
//
smiles-text: COc1ccc(Cn2c3ccc(Br)cc3c3c(C)n[nH]c(=O)c32)cc1
target-or-system: NCI-H727
recorded-measurement: 5
//
smiles-text: COc1ccc2c(c1)c1c(C)n[nH]c(=O)c1n2Cc1cccc(C#N)c1
target-or-system: NCI-H727
recorded-measurement: 4
//
smiles-text: Cc1n[nH]c(=O)c2c1c1cc(Br)ccc1n2Cc1ccc([N+](=O)[O-])cc1
target-or-system: NCI-H727
recorded-measurement: 1
//
smiles-text: COc1ccc2c(c1)c1c(C)n[nH]c(=O)c1n2Cc1ccc([N+](=O)[O-])cc1
target-or-system: NCI-H727
recorded-measurement: 2.5
//
smiles-text: COc1cccc(Cn2c3ccc(OC)cc3c3c(C)n[nH]c(=O)c32)c1
target-or-system: NCI-H727
recorded-measurement: 3
//
smiles-text: Cc1n[nH]c(=O)c2c1c1cc(F)ccc1n2Cc1cccc([N+](=O)[O-])c1
target-or-system: NCI-H727
recorded-measurement: 6
//
smiles-text: Cc1n[nH]c(=O)c2[nH]c3ccc(Br)cc3c12
target-or-system: NCI-H727
recorded-measurement: 3
//
smiles-text: COc1ccc2[nH]c3c(=O)[nH]nc(C)c3c2c1
target-or-system: NCI-H727
recorded-measurement: 5
//
smiles-text: Oc1cccc(-c2nc(N3CCOCC3)c3oc4ncccc4c3n2)c1
target-or-system: NCI-H727
recorded-measurement: 3
//
smiles-text: CC[C@H](CO)Nc1nc(NCc2ccccc2)c2ncn(C(C)C)c2n1
target-or-system: NCI-H727
recorded-measurement: 20
//
smiles-text: Cc1n[nH]c(=O)c2c1c1cc(Br)ccc1n2Cc1cccc([N+](=O)[O-])c1
target-or-system: NCI-H727
recorded-measurement: 4
//
smiles-text: COc1ccc(Cn2c3ccc(F)cc3c3c(C)n[nH]c(=O)c32)cc1
target-or-system: NCI-H727
recorded-measurement: 3
//
smiles-text: COc1ccc2c(c1)c1c(C)n[nH]c(=O)c1n2Cc1ccc(C#N)cc1
target-or-system: NCI-H727
recorded-measurement: 2
//
smiles-text: Cc1n[nH]c(=O)c2[nH]c3ccc(F)cc3c12
target-or-system: NCI-H727
recorded-measurement: 2
//
smiles-text: COc1ccc2c(c1)c1c(C)n[nH]c(=O)c1n2Cc1cccc([N+](=O)[O-])c1
target-or-system: NCI-H727
recorded-measurement: 4
//
smiles-text: COc1cccc(Cn2c3ccc(F)cc3c3c(C)n[nH]c(=O)c32)c1
target-or-system: NCI-H727
recorded-measurement: 2

---

System: Huh-7
assay-summary: Antiproliferative activity against human HuH7 cells incubated for 48 hrs by […] dye staining based assay
Assay type: functional, cell-based
measurement-context: Huh-7, 48 h

compound: Cc1n[nH]c(=O)c2[nH]c3ccc(Br)cc3c12
unit-text: nM
IC50: 1500
//
compound: COc1ccc2c(c1)c1c(C)n[nH]c(=O)c1n2Cc1ccc(C#N)cc1
unit-text: nM
IC50: 2000
//
compound: COc1ccc2c(c1)c1c(C)n[nH]c(=O)c1n2Cc1ccc([N+](=O)[O-])cc1
unit-text: nM
IC50: 3000
//
compound: COc1ccc2c(c1)c1c(C)n[nH]c(=O)c1n2Cc1cccc([N+](=O)[O-])c1
unit-text: nM
IC50: 1500
//
compound: Oc1cccc(-c2nc(N3CCOCC3)c3oc4ncccc4c3n2)c1 [PI-103]
unit-text: nM
IC50: 1500
//
compound: Cc1n[nH]c(=O)c2c1c1cc(F)ccc1n2Cc1ccc([N+](=O)[O-])cc1
unit-text: nM
IC50: 5000
//
compound: Cc1n[nH]c(=O)c2c1c1cc(F)ccc1n2Cc1ccc(C#N)cc1
unit-text: nM
IC50: 3000
//
compound: Cc1n[nH]c(=O)c2c1c1cc(F)ccc1n2Cc1cccc([N+](=O)[O-])c1
unit-text: nM
IC50: 3000
//
compound: Cc1n[nH]c(=O)c2c1c1cc(Br)ccc1n2Cc1ccc([N+](=O)[O-])cc1
unit-text: nM
IC50: 1000
//
compound: Cc1n[nH]c(=O)c2c1c1cc(F)ccc1n2Cc1cccc(C#N)c1
unit-text: nM
IC50: 3000
//
compound: COc1cccc(Cn2c3ccc(Br)cc3c3c(C)n[nH]c(=O)c32)c1
unit-text: nM
IC50: 2000
//
compound: Cc1n[nH]c(=O)c2c1c1cc(Br)ccc1n2Cc1cccc([N+](=O)[O-])c1
unit-text: nM
IC50: 2000
//
compound: Cc1n[nH]c(=O)c2c1c1cc(Br)ccc1n2Cc1cccc(C#N)c1
unit-text: nM
IC50: 2000
//
compound: COc1ccc2[nH]c3c(=O)[nH]nc(C)c3c2c1
unit-text: nM
IC50: 3000
//
compound: COc1cccc(Cn2c3ccc(OC)cc3c3c(C)n[nH]c(=O)c32)c1
unit-text: nM
IC50: 1000
//
compound: COc1ccc(Cn2c3ccc(Br)cc3c3c(C)n[nH]c(=O)c32)cc1
unit-text: nM
IC50: 1500
//
compound: COc1cccc(Cn2c3ccc(F)cc3c3c(C)n[nH]c(=O)c32)c1
unit-text: nM
IC50: 1500
//
compound: Cc1n[nH]c(=O)c2[nH]c3ccc(F)cc3c12
unit-text: nM
IC50: 1500
//
compound: COc1ccc(Cn2c3ccc(F)cc3c3c(C)n[nH]c(=O)c32)cc1
unit-text: nM
IC50: 1000
//
compound: COc1ccc2c(c1)c1c(C)n[nH]c(=O)c1n2Cc1cccc(C#N)c1
unit-text: nM
IC50: 2000
//
compound: Cc1n[nH]c(=O)c2c1c1cc(Br)ccc1n2Cc1ccc(C#N)cc1
unit-text: nM
IC50: 2000

---

// reported pIC50 per item
target-or-system: PI3-kinase p110-alpha/p85-alpha (Homo sapiens)
Sequence (P27986 whole entry): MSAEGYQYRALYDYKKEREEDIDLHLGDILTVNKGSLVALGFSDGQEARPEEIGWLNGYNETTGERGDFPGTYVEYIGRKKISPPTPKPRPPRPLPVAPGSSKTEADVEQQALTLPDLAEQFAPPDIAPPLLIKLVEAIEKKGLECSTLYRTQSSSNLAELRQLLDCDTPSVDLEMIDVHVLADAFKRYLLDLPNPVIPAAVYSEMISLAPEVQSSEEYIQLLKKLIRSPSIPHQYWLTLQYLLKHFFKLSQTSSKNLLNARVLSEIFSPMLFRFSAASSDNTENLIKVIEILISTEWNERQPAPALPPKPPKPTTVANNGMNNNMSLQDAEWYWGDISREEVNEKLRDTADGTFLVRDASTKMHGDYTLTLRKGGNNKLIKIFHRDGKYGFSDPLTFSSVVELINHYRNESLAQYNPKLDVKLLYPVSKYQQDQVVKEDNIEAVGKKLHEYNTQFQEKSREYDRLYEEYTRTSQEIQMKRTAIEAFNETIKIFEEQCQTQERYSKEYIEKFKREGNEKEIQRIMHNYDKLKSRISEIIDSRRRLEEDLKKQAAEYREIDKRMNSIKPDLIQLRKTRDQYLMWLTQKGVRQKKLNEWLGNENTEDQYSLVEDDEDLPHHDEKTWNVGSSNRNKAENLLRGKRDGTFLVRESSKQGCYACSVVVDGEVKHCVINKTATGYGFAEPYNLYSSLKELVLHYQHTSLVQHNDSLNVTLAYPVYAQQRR
Sequence (P42336 whole entry): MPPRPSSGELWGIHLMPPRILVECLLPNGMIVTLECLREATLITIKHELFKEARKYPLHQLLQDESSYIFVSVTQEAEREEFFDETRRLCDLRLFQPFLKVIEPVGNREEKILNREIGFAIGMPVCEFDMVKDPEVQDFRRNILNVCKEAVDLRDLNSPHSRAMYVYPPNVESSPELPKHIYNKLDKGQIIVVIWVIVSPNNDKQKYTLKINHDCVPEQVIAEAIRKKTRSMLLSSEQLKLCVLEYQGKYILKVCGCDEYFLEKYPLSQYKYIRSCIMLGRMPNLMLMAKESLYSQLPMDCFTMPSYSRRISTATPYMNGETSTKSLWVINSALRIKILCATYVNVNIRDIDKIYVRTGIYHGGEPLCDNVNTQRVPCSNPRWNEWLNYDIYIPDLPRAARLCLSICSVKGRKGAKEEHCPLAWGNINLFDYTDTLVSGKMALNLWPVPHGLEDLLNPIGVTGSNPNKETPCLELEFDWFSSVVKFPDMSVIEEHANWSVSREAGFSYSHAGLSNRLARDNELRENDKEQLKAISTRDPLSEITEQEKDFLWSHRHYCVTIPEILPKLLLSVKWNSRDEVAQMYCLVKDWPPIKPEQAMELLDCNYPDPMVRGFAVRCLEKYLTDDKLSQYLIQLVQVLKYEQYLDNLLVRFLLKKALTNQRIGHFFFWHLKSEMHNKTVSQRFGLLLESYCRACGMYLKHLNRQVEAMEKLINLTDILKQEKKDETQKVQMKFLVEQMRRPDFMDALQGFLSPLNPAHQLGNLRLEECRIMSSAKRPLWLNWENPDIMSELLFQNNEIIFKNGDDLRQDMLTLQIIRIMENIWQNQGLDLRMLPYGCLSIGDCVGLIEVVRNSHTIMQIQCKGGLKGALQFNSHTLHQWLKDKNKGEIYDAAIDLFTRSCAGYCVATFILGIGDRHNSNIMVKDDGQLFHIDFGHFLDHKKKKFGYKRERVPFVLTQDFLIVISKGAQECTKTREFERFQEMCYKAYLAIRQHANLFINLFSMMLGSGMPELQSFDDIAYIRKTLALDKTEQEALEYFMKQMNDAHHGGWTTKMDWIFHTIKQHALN
assay-summary: Inhibition of PI3K p110alpha/p85alpha by fluorescence based immunoassay
Assay type: protein-complex assay
pIC50: −log10 of the molar value.
recorded-endpoint: pIC50

smiles-text: COc1ccc(Cn2c3ccc(OC)cc3c3c(C)n[nH]c(=O)c32)cc1
recorded-endpoint: pIC50
comparator: <
recorded-measurement: 5.00
//
smiles-text: COc1ccc2c(c1)c1c(C)n[nH]c(=O)c1n2Cc1ccc([N+](=O)[O-])cc1
recorded-endpoint: pIC50
comparator: =
recorded-measurement: 5.59
//
smiles-text: Cc1n[nH]c(=O)c2c1c1cc(F)ccc1n2Cc1ccc([N+](=O)[O-])cc1
recorded-endpoint: pIC50
comparator: <
recorded-measurement: 5.00
//
smiles-text: Cc1n[nH]c(=O)c2c1c1cc(F)ccc1n2Cc1cccc([N+](=O)[O-])c1
recorded-endpoint: pIC50
comparator: <
recorded-measurement: 5.00
//
smiles-text: COc1cccc(Cn2c3ccc(OC)cc3c3c(C)n[nH]c(=O)c32)c1
recorded-endpoint: pIC50
comparator: =
recorded-measurement: 5.20
//
smiles-text: COc1ccc2c(c1)c1c(C)n[nH]c(=O)c1n2Cc1cccc([N+](=O)[O-])c1
recorded-endpoint: pIC50
comparator: =
recorded-measurement: 5.74
//
smiles-text: Cc1n[nH]c(=O)c2c1c1cc(Br)ccc1n2Cc1cccc(C#N)c1
recorded-endpoint: pIC50
comparator: =
recorded-measurement: 7.04
//
smiles-text: COc1cccc(Cn2c3ccc(F)cc3c3c(C)n[nH]c(=O)c32)c1
recorded-endpoint: pIC50
comparator: <
recorded-measurement: 5.00
//
smiles-text: Cc1n[nH]c(=O)c2c1c1cc(F)ccc1n2Cc1ccc(C#N)cc1
recorded-endpoint: pIC50
comparator: <
recorded-measurement: 5.00
//
smiles-text: COc1cccc(Cn2c3ccc(Br)cc3c3c(C)n[nH]c(=O)c32)c1
recorded-endpoint: pIC50
comparator: =
recorded-measurement: 5.82
//
smiles-text: Cc1n[nH]c(=O)c2c1c1cc(Br)ccc1n2Cc1cccc([N+](=O)[O-])c1
recorded-endpoint: pIC50
comparator: =
recorded-measurement: 5.29
//
smiles-text: Cc1n[nH]c(=O)c2c1c1cc(F)ccc1n2Cc1cccc(C#N)c1
recorded-endpoint: pIC50
comparator: =
recorded-measurement: 5.30
//
smiles-text: COc1ccc2[nH]c3c(=O)[nH]nc(C)c3c2c1
recorded-endpoint: pIC50
comparator: <
recorded-measurement: 5.00
//
smiles-text: COc1ccc2c(c1)c1c(C)n[nH]c(=O)c1n2Cc1cccc(C#N)c1
recorded-endpoint: pIC50
comparator: =
recorded-measurement: 5.48
//
smiles-text: COc1ccc(Cn2c3ccc(Br)cc3c3c(C)n[nH]c(=O)c32)cc1
recorded-endpoint: pIC50
comparator: =
recorded-measurement: 5.82
//
smiles-text: Cc1n[nH]c(=O)c2[nH]c3ccc(F)cc3c12
recorded-endpoint: pIC50
comparator: <
recorded-measurement: 5.00
//
smiles-text: COc1ccc(Cn2c3ccc(F)cc3c3c(C)n[nH]c(=O)c32)cc1
recorded-endpoint: pIC50
comparator: =
recorded-measurement: 5.38
//
smiles-text: COc1ccc2c(c1)c1c(C)n[nH]c(=O)c1n2Cc1ccc(C#N)cc1
recorded-endpoint: pIC50
comparator: =
recorded-measurement: 5.54
//
smiles-text: Cc1n[nH]c(=O)c2c1c1cc(Br)ccc1n2Cc1ccc([N+](=O)[O-])cc1
recorded-endpoint: pIC50
comparator: =
recorded-measurement: 5.22
//
smiles-text: Cc1n[nH]c(=O)c2c1c1cc(Br)ccc1n2Cc1ccc(C#N)cc1
recorded-endpoint: pIC50
comparator: =
recorded-measurement: 5.72
